Tested on: MCF7
Assay: Antiproliferative activity against human MCF7 cells assessed as cell growth inhibition incubated for 6 days with media replacement for every 2 to 3 days by MTT assay
Format: functional, cell-based
endpoint-label: IC50 (nM)

record_smiles=Cc1ncsc1-c1ccc([C@@H](C)NC(=O)[C@H]2C[C@H](O)CN2C(=O)[C@H](NC(=O)CCCCOc2ccc(CCNC(=O)c3ccc(C(=O)c4c(-c5ccc(O)cc5)sc5cc(O)ccc45)cc3)cc2)C(C)(C)C)cc1 system_tested=MCF7 value=13.2

---

Molecular target: von Hippel-Lindau disease tumor suppressor/Estrogen receptor (Homo sapiens, UniProt P03372+P40337)
Sequence (P03372 whole entry, one chain of several): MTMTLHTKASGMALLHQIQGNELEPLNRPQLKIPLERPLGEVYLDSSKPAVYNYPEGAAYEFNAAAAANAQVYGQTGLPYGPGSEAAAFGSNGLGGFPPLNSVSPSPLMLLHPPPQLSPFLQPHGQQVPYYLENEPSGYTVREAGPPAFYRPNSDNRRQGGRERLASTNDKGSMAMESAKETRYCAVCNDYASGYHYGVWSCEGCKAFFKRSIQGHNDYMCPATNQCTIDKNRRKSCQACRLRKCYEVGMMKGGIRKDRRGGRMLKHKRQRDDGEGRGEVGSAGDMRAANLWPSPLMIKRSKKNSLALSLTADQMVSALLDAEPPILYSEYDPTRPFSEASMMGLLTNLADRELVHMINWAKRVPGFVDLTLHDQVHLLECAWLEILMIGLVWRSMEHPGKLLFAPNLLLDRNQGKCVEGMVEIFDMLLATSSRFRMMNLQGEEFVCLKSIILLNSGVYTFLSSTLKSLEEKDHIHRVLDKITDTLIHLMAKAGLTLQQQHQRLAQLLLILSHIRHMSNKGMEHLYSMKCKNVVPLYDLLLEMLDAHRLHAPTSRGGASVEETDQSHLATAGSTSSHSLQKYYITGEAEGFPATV
Experiment: Protac activity at VHL/ER alpha in human MCF7 cells assessed as degradation of ER alpha incubated for 6 hrs by Western blot analysis
pEC50: −log10 of the molar value.
endpoint-label: pEC50

record_smiles=Cc1ncsc1-c1ccc([C@@H](C)NC(=O)[C@H]2C[C@H](O)CN2C(=O)[C@H](NC(=O)CCCCOc2ccc(CCNC(=O)c3ccc(C(=O)c4c(-c5ccc(O)cc5)sc5cc(O)ccc45)cc3)cc2)C(C)(C)C)cc1 value=8.96

---

System: MCF7
Assay: Antiproliferative activity against human MCF7 cells assessed as inhibition of cell growth measured after 5 days by PrestoBlue cell viability assay
Format: functional, cell-based
Conditions: MCF7, 120 h
pIC50: −log10 of the molar value.
endpoint-label: pIC50

compound="CCN(CCCCCCCC(=O)NC(C(=O)N1C[C@@H](O)C[C@@H]1C(=O)N[C@H](C)c1ccc(-c2scnc2C)cc1)C(C)(C)C)CCOc1ccc(C(=O)c2c(-c3ccc(O)cc3)sc3cc(O)ccc23)cc1 (stereo partly specified)" value=9.10

---

Target: von Hippel-Lindau disease tumor suppressor/Histone deacetylase 3 (Homo sapiens, UniProt O15379+P40337)
Sequence (O15379 whole entry): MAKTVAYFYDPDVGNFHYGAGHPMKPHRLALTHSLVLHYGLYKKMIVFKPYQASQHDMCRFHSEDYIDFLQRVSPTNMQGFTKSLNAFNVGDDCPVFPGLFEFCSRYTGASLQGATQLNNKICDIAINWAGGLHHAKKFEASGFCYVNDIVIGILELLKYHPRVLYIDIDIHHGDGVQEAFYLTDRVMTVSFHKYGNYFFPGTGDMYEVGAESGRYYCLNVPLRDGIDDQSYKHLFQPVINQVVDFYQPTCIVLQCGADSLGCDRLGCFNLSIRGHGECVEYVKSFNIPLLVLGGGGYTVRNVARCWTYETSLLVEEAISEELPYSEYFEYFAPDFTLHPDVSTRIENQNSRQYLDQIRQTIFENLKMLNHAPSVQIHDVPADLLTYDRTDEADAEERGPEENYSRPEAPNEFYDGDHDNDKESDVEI
Sequence (P40337 whole entry): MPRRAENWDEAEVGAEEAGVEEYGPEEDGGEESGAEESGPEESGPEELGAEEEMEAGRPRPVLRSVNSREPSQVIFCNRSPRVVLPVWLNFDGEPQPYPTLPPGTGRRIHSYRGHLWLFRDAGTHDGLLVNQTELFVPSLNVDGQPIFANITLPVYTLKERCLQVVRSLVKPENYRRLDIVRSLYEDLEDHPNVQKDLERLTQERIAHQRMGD
Experiment: Protac activity at VHL/HDAC3 in human MDA-MB-468 assessed as degradation of HDAC3 incubated for 14 hrs by Western blot analysis
endpoint-label: EC50 (nM)

compound="CCCNNC(=O)c1ccc(-c2ccc(NC(=O)CCCCCCC(=O)NC(C(=O)N3C[C@@H](O)C[C@@H]3C(=O)N[C@H](C)c3ccc(-c4scnc4C)cc3)C(C)(C)C)cc2)cc1 (stereo partly specified)" unit_text=nM value=42

---

Target: Protein cereblon/GTPase KRas (Homo sapiens, UniProt P01116+Q96SW2, G12C)
Sequence (P01116 whole entry G12C, stated change not applied): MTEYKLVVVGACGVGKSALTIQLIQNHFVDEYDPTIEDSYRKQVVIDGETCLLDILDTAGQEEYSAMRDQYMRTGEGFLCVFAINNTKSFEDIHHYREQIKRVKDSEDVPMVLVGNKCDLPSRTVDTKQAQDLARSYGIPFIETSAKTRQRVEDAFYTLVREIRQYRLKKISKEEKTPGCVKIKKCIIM
Sequence (Q96SW2 whole entry, stated change not applied): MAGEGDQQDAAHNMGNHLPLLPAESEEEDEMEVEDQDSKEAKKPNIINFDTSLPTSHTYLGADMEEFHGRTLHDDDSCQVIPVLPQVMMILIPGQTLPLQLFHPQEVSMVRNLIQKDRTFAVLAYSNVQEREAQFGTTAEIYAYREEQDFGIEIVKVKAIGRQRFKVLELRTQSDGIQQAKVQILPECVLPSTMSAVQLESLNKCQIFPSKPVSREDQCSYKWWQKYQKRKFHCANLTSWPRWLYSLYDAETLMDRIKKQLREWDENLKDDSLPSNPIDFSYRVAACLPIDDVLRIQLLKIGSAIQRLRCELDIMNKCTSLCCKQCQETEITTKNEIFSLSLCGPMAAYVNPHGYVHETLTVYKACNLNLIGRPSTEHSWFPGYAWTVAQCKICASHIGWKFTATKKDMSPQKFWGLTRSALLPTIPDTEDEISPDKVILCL
Assay: Protac activity at CRBN/KRAS G12C mutant in human NCI-H358 cells assessed as degradation of KRAS G12C mutant
endpoint-label: EC50 (µM)

compound="COc1cc(Cl)c(-c2cc(Cl)ccc2Cl)cc1C(=O)N1CCN(C(=O)/C=C/C(=O)NCCCCCCNc2cccc3c2C(=O)N(C2CCC(=O)NC2=O)C3=O)CC1 (stereo unspecified)" value=1.25

---

Biological target: Protein cereblon/Bromodomain-containing protein 4 (Homo sapiens, UniProt O60885+Q96SW2)
Sequence (Q96SW2 whole entry, looked up, other chains not shown): as the sequence (Q96SW2 whole entry, stated change not applied) above
Test: Protac activity at CRBN/BRD4 (unknown origin)
Format: protein assay
pEC50: −log10 of the molar value.
endpoint-label: pEC50

molecule="Cc1sc2c(c1C)C(c1ccc(Cl)cc1)=N[C@@H](CC(=O)NCCCCCNC(=O)COc1ccc(C3CCC(=O)NC3=O)cc1)c1nnc(C)n1-2 (stereo partly specified)" system_tested="Protein cereblon/Bromodomain-containing protein 4 (Homo sapiens, UniProt O60885+Q96SW2)" value=9.06

---

Test: Cytotoxicity against HEK293 cells assessed as inhibition of cell growth
Assay type: toxicity, cell-based
Settings: human
pIC50: −log10 of the molar value.
endpoint-label: pIC50

record_smiles=Cc1ncsc1-c1ccc(CNC(=O)[C@H]2C[C@H](O)CN2C(=O)[C@H](NC(=O)COCC(C)(COCCOCCOCCNC(=O)C[C@H]2N=C(c3ccc(Cl)cc3)c3c(sc(C)c3C)-n3c(C)nnc32)COCCOCCOCCNC(=O)C[C@H]2N=C(c3ccc(Cl)cc3)c3c(sc(C)c3C)-n3c(C)nnc32)C(C)(C)C)cc1 value=8.96

The measurements presented in this section are drawn from ChEMBL document CHEMBL5247611.
